For each record, write down the corresponding apparent Kd.
test system: MS2 coat protein; assay: apparent Kd, MS2 coat protein; higher = weaker binding; RNA-MaP array; FMN 200 µM where present; conditions: ligand present: flavin mononucleotide; designed as: ON switch for flavin mononucleotide
Please give a number only; it is taken to be in nM.

Request: Value wanted: apparent Kd (MS2 coat protein) of entry `GUGGCAUACUGAGGAUAUUCAUAUAAUAAAUAAACAUGAGGAUCACCCAUGUGGCGAAAGCCUUGGGAGAAGGCAGAAUGCUAC`
Result: 46.7

Request: Lab note: need apparent Kd with MS2 coat protein for entry `AGACCGCUACGCCGGUUUGACGCACAGGAUAUGCGGUUACAUGAGGAUCACCCAUGUGGCCAUGAGUAGAAGGGUGGUUCGUCC` , please look it up.
Result: 39.1

Request: Lookup: apparent Kd / MS2 coat protein / `UAAUAAUUAAGAGGAUAUAUACAACAUGAGGAUCACCCAUGUACCCAUGUAGUAGAAGGCUUAUUUUUAUUUAAUAAUAUAAUU`
Result: 40.1

Request: Find apparent Kd (MS2 coat protein) for the entry `AUUAUUUAUAGUUAUUGGUAAUUGACAGAAGGUGAAAGUGUCACAUGAGGAUCACCCAUGUUCUUCAAGGAUAUGUUGGUUUAC`
Result: 8.4

Request: Lab note: need apparent Kd with MS2 coat protein for entry `AGAUUUUUACAUGAGGAUCACCCAUGUUAAUAGGUGUUUGUCAGAAGGCAUUAUGAGAGAAUUAAUGAGGAUAUGAAGUUUCAU` , please look it up.
Result: 27.8

Request: Field: apparent Kd (MS2 coat protein). Entry: `GCAUUGAUAACAGGAUAUAUGUAUCCUACAUGAGGAUCACCCAUGUAGGUGAUCAGCCGCGAUAAGUAGAAGGGUUAUCAAUGC`
Result: 13.7

Request: GET /values?readout=apparent Kd&system=MS2 coat protein&item= `ACAUGAGGAUCACCCAUGUGGACAUAGGAUAUUGGUGAUCAGGCGUGUUAUACAGGAUAGGUCUGCGAGAAGGGUGUGCGUUGC`
Result: 218

Request: Return apparent Kd measured with MS2 coat protein given this sequence: `UUAACAUGAGGAUCACCCAUGUAUAGAUCGGUUAAUAGAAGUGAGGAUAUGCUUAAAAUAAGGUAGCAGAAGGCACUGGGUACU`
Result: 28.7

Request: API: value(readout=apparent Kd, system=MS2 coat protein) for record `ACAUGAGGAUCACCCAUGUAUAGAUUUGAAUGUUAAGUUACGUAGGAUAUCGUGUUUAGUAUGAUCGAGAAGGACGAUCUGAUA`
Result: 20.8

Request: Give recorded apparent Kd with MS2 coat protein for the following sequence: `AAAACAUGAGGAUCACCCAUGUUAAGAUCGGUUAAUAGAAGUGAGGAUAUACGAAGUUAAAGCUGGUAGAAGGCACUGGGUACA`
Result: 26.5

Request: Look up apparent Kd with MS2 coat protein for this sequence: `ACUUUACAUGAGGAUCACCCAUGUUUUGGUGGAUCAGGAUAUAAAUUGAAUGAGUUUUAGUUAGAAGGGAUAUUUA`
Result: 99

Request: Short answer please: apparent Kd, MS2 coat protein, entry `GCUUUCGCAUGAGGAUAUGCUCGAGUUUAGAGAGCAGAAGGCAUGUCAUAAGACAUGAGGAUCACCCAUGUAGUUAAAAUUGCA`
Result: 10.7

Request: For the record `AGGAAACAUGAGGAUCACCCAUGUAAAAGGUGGUUAGGAUAUGCGAUAAUAAAAAUAAUAGCAGAAGGGACAAGAA` , what value of apparent Kd is listed for MS2 coat protein?
Result: 432

Request: So what apparent Kd did `GUAUGAGCGAUAGGAUAUACUGAGAUUGAAUGGGUAGAAGGAUUUCUUGUGGGAAAGACAUGAGGAUCACCCAUGUCGCGGACC` get with MS2 coat protein?
Result: 176

Request: Form: Entry = `UUUAUAAAUUAGAAGGCGUGAUGAAUUACAAUAGACAUGAGGAUCACCCAUGUGUAUUCAUGUCAUGAGGAUAUAGUCAUAUAU` | System = MS2 coat protein | apparent Kd = ____
Result: 19.4

Request: Find the measured apparent Kd: item `GCCAUCGCAUGAGGAUAUAAUCGGGUUUCCCGUUUAGAAGGCAUGUCAUAAGACAUGAGGAUCACCCAUGUAGUUAAGAUGGCA` , target or system MS2 coat protein.
Result: 27

Request: # returns recorded apparent Kd (system: MS2 coat protein) for `CGCUAAGAUGGGUUUAAUGGAGCAUAGGAUAUGCUUGUACAUGAGGAUCACCCAUGUUAUAUUGUGCAGAAGGGUGCAUUUGCG`
Result: 158

Request: What value of apparent Kd on MS2 coat protein does `CACGGCGUAUCAGGAUAUGUGGGUGUCUGGACAUGAGGAUCACCCAUGUAAACAGUAUUAGCCGUGCAGAAGGGAUCCGCUGUA` have?
Result: 65.2

Request: Any idea what apparent Kd came out for `AAACACGGACAUGAGGAUCACCCAUGUGGCGAAAGCCUUGGGAGAAGGCCGAUUGCAAAGCAAUCGGAGGAUAUUCGUACCGUG` on MS2 coat protein?
Result: 13.8

Request: Observed apparent Kd on MS2 coat protein for `GAGGCACAUGAGGAUCACCCAUGUGGGUAUAACAUAGGAUAUCACCAACAAAAUACCCGGUGAGAAGGAUGAUGCC` , please.
Result: 113

Request: Please provide the recorded apparent Kd for `CUAUGAACGAUAGGAUAUACUGAGGUUGAGUGGGUAGAAGGAUCGAUAGUGUAGAAGACAUGAGGAUCACCCAUGUUAUGGAUU` , tested on MS2 coat protein.
Result: 318

Request: Value wanted: apparent Kd (MS2 coat protein) of entry `GGGUACAUCGGAGGAUAUCAUGUAAAUACAUGAGGAUCACCCAUGUCGAUGGAGGCAUCGGAGAUUGAGAAGGCCGAUGUACCG`
Result: 17.6

Request: Notebook: pull reported apparent Kd for MS2 coat protein, entry `UGUGUUAUUGGAGGAUAUCGAUAUCAAACAUGAGGAUCACCCAUGUUGAGGAUCACACAUGUAAAUGAGAAGGCCGACGUAGUG`
Result: 16.2

Request: Hi! What's the reported apparent Kd for `ACAUGAGGAUCACCCAUGUAGAGUGAAGAAGGUAGAUACUUAUGACUCUCCCAUGUACAUAGGACUGAGGAUAUUCUAAUAAUU` on MS2 coat protein?
Result: 18.9

Request: Checklist item: apparent Kd tested on MS2 coat protein, entry `ACCAGUGACACAGGAUAUCCGUGCAUGUAGCACGGAGAAGGGUGUUCCAAUCAACUCACAUGAGGAUCACCCAUGUGCUACUUG` , value?
Result: 59.8

Request: Short answer please: apparent Kd, MS2 coat protein, entry `UUGGAGUUCGUAGGAUAUGUAGGAUAUUCCUACAUGAGGAUCACCCAUGUUUACAUGGAAGAAGGACAGAAGGACGAGCUCCAU`
Result: 16.2

Request: # query: apparent Kd | item `GCGUUGUUGUAGAAGGUACAUGAAUACUUUUAUUACCUCAAGUAACAUGAGGAUCACCCAUGUAGUAAGGAUAUACAUGAACGC` | system: MS2 coat protein
Result: 24.3

Request: Param readout = apparent Kd; param system = MS2 coat protein; param query = `GCGCUUAUACAGAAGGCCAGUUACAUGAGGAUCACCCAUGUUAGAUUGUGGAGGAUAUGUGUUUUAUUACAGAUAGUUGAGCGC` ; response: value
Result: 6.84
